Readings of z-score for the listed compounds
- target-or-system: NADPH oxidase 2 (Homo sapiens)
- measurement-description: compounds shifting NOX2 Amplex Red fluorescence – cell-based, HEK293-NOX2, PMA-stimulated, NOX inhibitor project, primary screen (AID 1159); also: test concentration not given here
- condition-set: 45 min, higher = more signal, called active from +8 up or from −8 down
property-measured: z-score

compound | property-measured | reported
CC1=C([C@H](O)CCc2ccccc2)[C@H](CO)n2c(=O)n(-c3ccccc3)c(=O)n2C1 | z-score | -0.53
C=CC1c2cc(O)c(OC)cc2CCN1C (stereo not drawn) | z-score | -4.27
COCCOC(=O)N1C(=O)[C@@]2(c3cc(C#CCCO)ccc31)[C@H](c1ccccc1OCCO)N1[C@H](c3ccccc3)[C@H](c3ccccc3)OC(=O)[C@H]1[C@@H]2C(N)=O | z-score | 1.81
C=C(COC)/C(=C/C[C@@H](OC(C)=O)c1ccccc1OCCO)c1cnc2ccccc2c1 | z-score | -1.22
NC(=O)N1C(=O)C2C(C1=O)C1C=C(CCCO)C2C(c2ccc(CN3CCCC3)cc2)N1Cc1sc2ccccc2c1Cl (stereo not drawn) | z-score | -0.101
C=C(CCCC)/C(=C/C[C@H](OC(=O)c1ccncc1)c1ccccc1OCCO)c1cc(C(=O)OC)ccc1OC | z-score | 0.559
COC(=O)[C@@]1(Cc2ccc(OC)cc2)[C@H]2c3cc(C(=O)N4CCCC4)n(Cc4c(CO)[nH]cc(C)c4=O)c3C[C@H]2CN1C(=O)c1ccccc1 | z-score | 0.753
COc1ccc(C(O)C2C=CC3C(=O)NC(=O)C3N2Nc2ccc(Cl)cc2Cl)c2ccccc12 (stereo not drawn) | z-score | -0.0689

---

- target-or-system: E3 ubiquitin-protein ligase XIAP (Homo sapiens) (UniProt P98170)
- Sequence (P98170 whole entry, looked up): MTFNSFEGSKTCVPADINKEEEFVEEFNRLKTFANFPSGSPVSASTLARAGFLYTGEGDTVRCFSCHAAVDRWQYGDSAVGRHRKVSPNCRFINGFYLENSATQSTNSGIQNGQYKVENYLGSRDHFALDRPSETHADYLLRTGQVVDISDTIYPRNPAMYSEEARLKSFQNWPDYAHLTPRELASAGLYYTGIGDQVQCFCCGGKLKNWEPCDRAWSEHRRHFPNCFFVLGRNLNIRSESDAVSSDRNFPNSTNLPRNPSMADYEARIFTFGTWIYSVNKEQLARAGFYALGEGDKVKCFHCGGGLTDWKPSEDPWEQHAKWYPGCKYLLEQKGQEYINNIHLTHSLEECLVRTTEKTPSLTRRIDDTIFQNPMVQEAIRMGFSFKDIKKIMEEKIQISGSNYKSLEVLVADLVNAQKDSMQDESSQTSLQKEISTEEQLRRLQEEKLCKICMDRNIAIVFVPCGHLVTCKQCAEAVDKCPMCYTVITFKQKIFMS
- measurement-description: small molecules binding XIAP protein – biophysical, small-molecule microarray, fluorescence 635 nm, primary screen (AID 1181);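 also: score merges 667 nm emission and signal to noise over triplicate slides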
- condition-set: higher = more signal
I would appreciate it if you labelled entries 1 when composite z-score is 0.3 or higher, otherwise 0.

molecule | discrete-label
CCCNC(=O)[C@@]1(Sc2ccc(C)cc2)CC(=O)N(Cc2ccccc2Cl)[C@@H]1c1ccc(CO)cc1I | 0
COc1ccc(C(=O)Nc2cccc(CN3C(=O)[C@]4(O[C@H](CC(=O)N5Cc6ccccc6C[C@H]5CO)[C@@H]([Si](C)(C)c5ccc(OC)cc5)[C@@H]4C)c4ccccc43)c2)cc1 | 0
CN(C)CCCC[C@@H]1NC(=O)[C@H]2C[C@@H](C(=O)O)[C@@H](c3ccc(O)cc3)N2C1=O | 1
CCCc1cc2c(n1CCc1ccc(Cl)cc1)C(C)C1CN(C(=O)c3ccccc3)C(C)(C(=O)OC)C21 (configuration not stated) | 1
COC(=O)C1=CC(CCCO)=CC(c2cccs2)N(Cc2cc3c(cc2Br)OCO3)C=C1C(=O)OC (configuration not stated) | 1
COC(=O)C(CC#Cc1ccc2c(c1)[C@]1(C(=O)N2)[C@H](c2ccc(OCCO)cc2)N2[C@H](c3ccccc3)[C@H](c3ccccc3)OC(=O)[C@H]2[C@@H]1C(=O)N1CCCCCCC1)C(=O)OC | 1
COC(=O)[C@]1(CCC(=O)OC(C)(C)C)N=C(c2ccc(OCCCO)cc2)O[C@@H]1c1ccccc1N=[N+]=[N-] | 0

---

- Tested on: Neuregulin-1 EGF-like domain
- measurement-description: small molecules binding NRG1 EGF domain – biochemical, small-molecule microarray, 635 nm fluorescence, primary screen (AID 1081);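 also: binding of the protein to compounds printed on small-molecule microarray slides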
- condition-set: higher = more signal
# composite z-score values compiled below

structure-notation | composite z-score
O=C(NC1CC1)[C@@H]1c2ccccc2C(=O)N(Cc2ccc(OC(F)(F)F)cc2)[C@H]1c1ccc(CO)cc1 | 0.793
C#CCN1[C@@H](Cc2ccccc2)C(=O)O[C@H](Cc2ccccc2)[C@@H]1/C=C/C1CC1 | 0.86
COc1ccc([Si](C)(C)[C@@H]2[C@@H](CC(=O)N3CCC[C@H]3CO)O[C@]3(C(=O)N(Cc4ccc(N5CCOC5=O)cc4)c4ccccc43)[C@H]2C)cc1 | 1.01
COC(=O)[C@@]1(Cc2ccc(F)cc2)[C@H]2c3cc(C(=O)N4CCCC4)n(Cc4ccccn4)c3C[C@H]2CN1C(=O)c1ccccc1 | 1.4
COC(=O)[C@@]1(Cc2ccccc2)[C@H]2c3cc(C(=O)N(C)C)n(Cc4ccc(S(C)(=O)=O)cc4)c3C[C@H]2CN1C(=O)c1ccccc1 | 1.22
C=C(CCCC)C(=O)CC[C@H](OC(=O)c1ccccc1-c1ccccc1C(=O)O)c1ccc(OCCO)cc1 | 1.19
COc1cc(CO)cc(I)c1O[C@H]1C=C(C(=O)NCCO)C[C@@H]2O[C@H]12 | 1.46

---

- measurement-description: S. pombe growth modifiers, basal conditions – strain 972, OD600, 24 h, no modulator, primary screen (AID 1090);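 also: basal condition with compound alone and no growth modifier present; test concentration not given here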
- condition-set: S. pombe 972 growth, higher = more signal, called active from +8 up or from −8 down
Active and inactive are the calls of the source.
Recorded measurements of z-score, one per entry
property-measured: z-score

compound | reported
Cc1ccc(C(C)CC(O)C2C=CC3C(=O)N(C)C(=O)C3N2Nc2ccccc2)o1 (configuration not stated) | 0.388 (inactive)
CCCCC(O)C1C=CC2C(=O)N(c3ccccc3)C(=O)C2N1Nc1ccc([N+](=O)[O-])cc1 (configuration not stated) | 0.429 (inactive)
CC(C)OC(=O)CC(=O)CC(O)c1cccc([N+](=O)[O-])c1 (configuration not stated) | -1.84 (inactive)
C=C(C)[C@@H]1CC=C(C(O)C2C=CC3C(=O)N(C)C(=O)C3N2Nc2ccc([N+](=O)[O-])cc2[N+](=O)[O-])CC1 (some centres not stated) | 1.79 (inactive)
O=C1C[C@@](C(=O)NC2CC2)(c2ccc([N+](=O)[O-])cc2)[C@@H](c2ccc(CO)cc2)N1C1CCCCC1 | -2.19 (inactive)
CCCN1C(=O)[C@@]2(c3ccc([N+](=O)[O-])cc3)CC(=O)N(CC34CC5CC(CC(C5)C3)C4)[C@@H]2c2ccc(CO)cc21 | -0.365 (inactive)
O=C1O[C@@H](c2ccccc2)[C@@H](c2ccccc2)N2[C@@H](c3ccc(OCCO)cc3)[C@]3(C(=O)Nc4ccc(C#CCCO)cc43)[C@@H](C(=O)O)[C@H]12 | 0.799 (inactive)

---

- System: Neuregulin-1 EGF-like domain
- measurement-description: small molecules binding NRG1 EGF domain – biochemical, small-molecule microarray, 635 nm fluorescence, primary screen (AID 1081);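 also: binding of the protein to compounds printed on small-molecule microarray slides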
- condition-set: higher = more signal
Let's look at some molecules and their measured composite z-score.
property-measured: composite z-score

molecule | target-or-system | reported
CC(C)C[C@H]1NC(=O)C([C@@H](C)OCc2ccccc2)NC(=O)[C@@]23C(=O)N[C@@H](Cc4ccccc4)C2[C@H](C)[C@@]2(C)O[C@H]2C3/C=C/C/C=C\CNC1=O (stereo partly drawn) | Neuregulin-1 EGF-like domain | 1.06
C[N+](C)(C)CCCCNC(=O)[C@H]1C[C@H]2C(=O)N[C@@H](Cc3ccccc3)C(=O)N2[C@H]1c1cccc(OCCO)c1 | Neuregulin-1 EGF-like domain | 1.36
O=C1O[C@@H](c2ccccc2)[C@@H](c2ccccc2)N2[C@@H](c3ccccc3OCCO)[C@]3(C(=O)Nc4ccc(C#CCCO)cc43)[C@@H](C(=O)NC[C@H](O)c3ccccc3)[C@H]12 | Neuregulin-1 EGF-like domain | 1.36
CCCC=C(CCC)[C@@H](NC(=O)OCC(C)C)c1ccc(C(=O)OC)cc1 | Neuregulin-1 EGF-like domain | 0.362
C=C(COC)/C(=C/C[C@@H](OC(C)=O)c1ccccc1OCCO)c1cnc2ccccc2c1 | Neuregulin-1 EGF-like domain | 1.13
C[N+](C)(C)CCCC[C@@H]1NC(=O)[C@H]2C[C@@H](C(=O)NCCCCCNC(=O)CS)[C@@H](c3cccc(OCCO)c3)N2C1=O | Neuregulin-1 EGF-like domain | 0.785
[N-]=[N+]=Nc1ccccc1C[C@@]1(C(=O)NCc2ccccc2)N=C(c2ccc(OCCCO)cc2)O[C@@H]1c1ccccc1N=[N+]=[N-] | Neuregulin-1 EGF-like domain | 1.06
CC(C)(C)N1CC=CC23O[C@@H]4/C=C\CCCOC(=O)C4[C@H]2C(=O)N(CCCO)[C@@H]3C1=O (stereo partly drawn) | Neuregulin-1 EGF-like domain | 1.1
C=CCC(OC(C)=O)[C@@H]1[C@@H](N(Cc2ccc(-c3ccccc3)cc2)C(=O)c2cccc3ccccc23)c2cc(OCCCO)ccc2N1C(=O)Cc1ccc(OC)cc1 (stereo partly drawn) | Neuregulin-1 EGF-like domain | -0.757
O=C1O[C@@H](c2ccccc2)[C@@H](c2ccccc2)N2[C@@H](c3ccc(OCCO)cc3)[C@]3(C(=O)Nc4ccc(C#CC5(O)CCCCCC5)cc43)[C@@H](C(=O)O)[C@H]12 | Neuregulin-1 EGF-like domain | 1.07
Cc1ccc(S[C@]2(C(=O)NC(C)C)CC(=O)N(C3CCCCC3)[C@@H]2c2ccc(CO)cc2I)cc1 | Neuregulin-1 EGF-like domain | 1.33
CC(C)N1C(=O)c2ccccc2[C@](C)(C(=O)NCC(F)(F)F)[C@@H]1c1ccc(CO)cc1 | Neuregulin-1 EGF-like domain | 0.107
COCCOC(=O)N1C(=O)[C@@]2(c3cc(C#CCNC(N)=O)ccc31)[C@H](C(=O)Nc1nc3ccccc3s1)[C@H]1C(=O)O[C@H](c3ccccc3)[C@H](c3ccccc3)N1[C@@H]2c1ccccc1OCCO | Neuregulin-1 EGF-like domain | 0.635
COC(=O)C1(Cc2ccccc2)C=C2C(=C(C)C(=O)C2C)CN1 (stereo not drawn) | Neuregulin-1 EGF-like domain | 0.635
CC(C)C(CO)N1C(=O)[C@@H]2C3C(=O)OCCC/C=C\[C@H]3OC23C=CCN(Cc2ccccc2)C(=O)[C@@H]13 (stereo partly drawn) | Neuregulin-1 EGF-like domain | 1.58
CCOC(=O)C[C@H]1[C@H](OC(=O)c2ccccc2-c2ccccc2)[C@@H](NC(=O)C2CCCCC2)c2cc(OCCCO)ccc2N1C(=O)c1ccc2ccccc2n1 | Neuregulin-1 EGF-like domain | 0.825
COC(=O)[C@@]1(Cc2ccccc2)[C@H]2c3cc(C(=O)N(C)C)n(CCO)c3C[C@H]2CN1C(=O)c1ccccc1 | Neuregulin-1 EGF-like domain | 1.17
CN(C)CCCNC(=O)[C@@]1(Cc2ccccc2I)c2ccccc2C(=O)N(C2CCCCC2)[C@H]1c1ccc(CO)cc1 | Neuregulin-1 EGF-like domain | 1.26
C=CCC(OC(C)=O)[C@@H]1[C@@H](N(Cc2cc3ccccc3o2)C(=O)Cc2ccc(OC)cc2)c2cc(OCCCO)ccc2N1C(=O)c1ccc2ccccc2n1 (stereo partly drawn) | Neuregulin-1 EGF-like domain | -0.0159
COC(=O)[C@]1(Cc2ccccc2)N=C(c2ccc(OCCCO)cc2)O[C@@H]1c1ccccc1CN=[N+]=[N-] | Neuregulin-1 EGF-like domain | 1.29
O=C1O[C@@H](c2ccccc2)[C@@H](c2ccccc2)N2[C@@H](c3ccc(OCCO)cc3)[C@]3(C(=O)Nc4ccc(C#CC5(O)CCCCCC5)cc43)[C@@H](C(=O)Nc3nc4ccccc4s3)[C@H]12 | Neuregulin-1 EGF-like domain | 1.24
COc1ccc(C(O)C2C=CC3C(=O)NC(=O)C3N2Nc2ccc(Cl)cc2Cl)c2ccccc12 (stereo not drawn) | Neuregulin-1 EGF-like domain | 1.04
Cc1ccc(N2C(=O)c3ccccc3[C@](C)(C(=O)NCCCN(C)C)[C@@H]2c2ccc(CO)cc2)nc1 | Neuregulin-1 EGF-like domain | 0.582
CN(C)CCCC[C@@H]1NC(=O)[C@@H]2C[C@H](C(=O)NCCCCCN)[C@H](c3cccc(OCCO)c3)N2C1=O | Neuregulin-1 EGF-like domain | 1.35
[N-]=[N+]=Nc1ccccc1C[C@@]1(C(=O)NCC(O)CO)N=C(c2ccc(OCCCO)cc2)O[C@@H]1c1ccccc1 (stereo partly drawn) | Neuregulin-1 EGF-like domain | 1.1
O=C1C2C=CC(C(O)c3cccs3)N(Nc3ccc([N+](=O)[O-])cc3)C2C(=O)N1c1ccccc1 (stereo not drawn) | Neuregulin-1 EGF-like domain | 1.23
C=CC[C@]1(C(=O)NCC(O)CO)COC(c2ccc(OCCCO)cc2)=N1 (stereo partly drawn) | Neuregulin-1 EGF-like domain | 0.99
C=CC[C@@]12N=C(c3ccc(OCCCO)cc3)O[C@@H]1c1ccccc1N(CCC)C2=O | Neuregulin-1 EGF-like domain | 1.21

Source of measurements: PubChem BioAssay
